System: PPARg:RXRa 30nM:10nM, anti-RXR (NR concentration 30 nM, RXRa partner concentration 10 nM)
Experiment: PBM binding z-score (relative to random genomic background probes); higher = stronger binding; sequences stand for … in GC…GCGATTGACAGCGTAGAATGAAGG
recorded.endpoint: PBM binding z-score

INSERT INTO results (ordered_residues, measurement) VALUES
  ('CCCTACGGGTCACTGACAGGTTATAGCATTTGGA', 0.787),
  ('TCTTGTAGATCAACAGGAGATTAAGAAAGATCGA', 2.14),
  ('GGAACGACGGCAAGTTGATAGCAGAGTTTGATGG', -0.288),
  ('TCGAGTAGGTTAGGGGCATTCAAAATGGCGTCGA', 1.27),
  ('CGAACTAGGTCAAGGTCAGTGAATCTCCGCACGC', 4.44),
  ('CGAACTAGGTCAGAACGGGACAGTGAAGGATGAT', 1.79),
  ('GGAACGAGGACAAGTTGATAGCAGAGTTTGATGG', -0.0459),
  ('TATAGCAGGCCAGAGGGTCACTCAAGAGGTACGG', 1.56),
  ('ATCTCTAGGTAACAAGTTCAGTGTAAGAGAGGAC', 0.896),
  ('ATATGTTGGTTATCGGGTCATTCAGTTTGCGCAT', 0.577),
  ('CCAGACAGGTGAGAAGGTAAGTCAGCCTCGATTA', -0.405),
  ('CCTACTGGGCCATTCAGAGGTGATTGATCATATG', -0.276);

---

Catalogue of sequences with associated PBM binding z-score
System: LXRa homodimer (NR concentration 270 nM)
Assay: PBM binding z-score (relative to random genomic background probes); higher = stronger binding; sequences stand for … in GC…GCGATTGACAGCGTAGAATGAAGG
recorded.endpoint: PBM binding z-score

INSERT INTO results (ordered_residues, experimental_target, recorded_endpoint, measurement) VALUES
  ('ATACCAAGGTGATCGTGGGGTCGTTGATACTAAC', 'LXRa homodimer (NR concentration 270 nM)', 'PBM binding z-score', 0.187),
  ('CTTCGGAGGACAACAGGAGGTCAGAGCTGCCAGA', 'LXRa homodimer (NR concentration 270 nM)', 'PBM binding z-score', 2.21),
  ('TATCCAGGGTCAAAGGCCAGAGTACGAATGTCGA', 'LXRa homodimer (NR concentration 270 nM)', 'PBM binding z-score', 2.02),
  ('GCTGCTAGGTCAGTTTGGTCAGCTAACGGGTACG', 'LXRa homodimer (NR concentration 270 nM)', 'PBM binding z-score', -0.212),
  ('ACAGTCAGGTGATGAAGGTAACTCAGGCTATCAT', 'LXRa homodimer (NR concentration 270 nM)', 'PBM binding z-score', -0.351),
  ('CCTCGGAGCACAGAAGGTCAGAGCTGTCCGCTTT', 'LXRa homodimer (NR concentration 270 nM)', 'PBM binding z-score', 0.231),
  ('CTCGAAAGGTCGGTTGCGGTGAGTATACGGATAA', 'LXRa homodimer (NR concentration 270 nM)', 'PBM binding z-score', 0.16),
  ('AGAATGAGGTTACCAAAGATCAGCGAAACGCTTG', 'LXRa homodimer (NR concentration 270 nM)', 'PBM binding z-score', -0.342),
  ('CGTCCAAGGTCATAGGAGGTCAGTGAGGACAGAT', 'LXRa homodimer (NR concentration 270 nM)', 'PBM binding z-score', 5.15),
  ('TCATATAGGCAAACAGGTGAAAGTCCGTAAGTTA', 'LXRa homodimer (NR concentration 270 nM)', 'PBM binding z-score', -0.0652),
  ('TCTCGGAGGACAGGAAAGGTCAGAGCTCGACATC', 'LXRa homodimer (NR concentration 270 nM)', 'PBM binding z-score', 1.44),
  ('GTACCAAGATGAATAGGTCGTTGATGAGTAGGCG', 'LXRa homodimer (NR concentration 270 nM)', 'PBM binding z-score', -0.17);

---

Catalogue of sequences with associated PBM binding z-score
Tested on: RARg:RXRa (NR concentration 270 nM, RXRa partner concentration 90 nM)
Assay: PBM binding z-score (relative to random genomic background probes); higher = stronger binding; sequences stand for … in GC…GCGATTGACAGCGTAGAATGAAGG
recorded.endpoint: PBM binding z-score

INSERT INTO assay_data (ordered_residues, experimental_target, measurement) VALUES
  ('CGTCCAAGTTCAGAGAGGTCAGTGAATGCCGAGT', 'RARg:RXRa (NR concentration 270 nM, RXRa partner concentration 90 nM)', 4.46),
  ('CAAACTAGGTCTAGGTCAAAGTCGGTTTGTGCCA', 'RARg:RXRa (NR concentration 270 nM, RXRa partner concentration 90 nM)', 2.15),
  ('AGTCAAAGTTCATGACGAGGTAACGTAAAGCACG', 'RARg:RXRa (NR concentration 270 nM, RXRa partner concentration 90 nM)', 6.13),
  ('CGTCAAAGTTCAATGTAACGTAACAGAAAGCAGC', 'RARg:RXRa (NR concentration 270 nM, RXRa partner concentration 90 nM)', 4.82),
  ('TCTTGTGGATCAGCAGGTTAAGAAAGCTGGCCAA', 'RARg:RXRa (NR concentration 270 nM, RXRa partner concentration 90 nM)', -0.0321),
  ('CCTCGCAGGCCAATCTGGGTCACTCAAGGCTTGA', 'RARg:RXRa (NR concentration 270 nM, RXRa partner concentration 90 nM)', 1.18),
  ('ACTATTAGTTGAGACGTGGGCAACCGATAGGTTG', 'RARg:RXRa (NR concentration 270 nM, RXRa partner concentration 90 nM)', -0.179),
  ('ATCTCTAGGTAAGACTCCGTTCAGTGAAGAACGC', 'RARg:RXRa (NR concentration 270 nM, RXRa partner concentration 90 nM)', 0.111),
  ('CTCGAAAGGTCGTGCTCAGGTAAGTATACCAAAC', 'RARg:RXRa (NR concentration 270 nM, RXRa partner concentration 90 nM)', 4.8),
  ('CCAGACAGGTAAAAGGTAACTCAGTCTGGTACGC', 'RARg:RXRa (NR concentration 270 nM, RXRa partner concentration 90 nM)', 0.33),
  ('ACTAGCAGGCCAAGTTTGGGTCAATCAAACAAAG', 'RARg:RXRa (NR concentration 270 nM, RXRa partner concentration 90 nM)', 2.43),
  ('TCATATAGGTAAATGCTAGGTAAAAGTCCGATCT', 'RARg:RXRa (NR concentration 270 nM, RXRa partner concentration 90 nM)', 0.567),
  ('TGACCAAGGTGAGCTGAGGTCGTTGATCCAACTC', 'RARg:RXRa (NR concentration 270 nM, RXRa partner concentration 90 nM)', 1.46),
  ('TCATATAGGTAAATGGTAGGTGAAAGTCCGATCT', 'RARg:RXRa (NR concentration 270 nM, RXRa partner concentration 90 nM)', 0.69),
  ('CCGACTGGGGCAAGGTTACCCTAACGCACAGCCA', 'RARg:RXRa (NR concentration 270 nM, RXRa partner concentration 90 nM)', 0.945),
  ('TAGCCTAGGTCATGCTGGCCAGTATAGTGTCGGC', 'RARg:RXRa (NR concentration 270 nM, RXRa partner concentration 90 nM)', 3.72),
  ('GTTGCTAGGTCAGGTTGGTCAGCTAACGGGTACG', 'RARg:RXRa (NR concentration 270 nM, RXRa partner concentration 90 nM)', 2.74),
  ('GCATATAGGTAATGCAAGGTGAAAGTCCGATTGT', 'RARg:RXRa (NR concentration 270 nM, RXRa partner concentration 90 nM)', 0.513),
  ('CGTCAAAGTTCAACTAAGGTAACGCAAAGCACGC', 'RARg:RXRa (NR concentration 270 nM, RXRa partner concentration 90 nM)', 5.94),
  ('CCTGCTAGGTCAACGGTCAGCTAAAGCAGCTCGC', 'RARg:RXRa (NR concentration 270 nM, RXRa partner concentration 90 nM)', 4.6),
  ('TAGCCTAGGTCATTCAGGGGCCAGTTTAGAAAGC', 'RARg:RXRa (NR concentration 270 nM, RXRa partner concentration 90 nM)', 5.71),
  ('CCTAGTTGGTCAGGAGGTTACACACCGGATATGA', 'RARg:RXRa (NR concentration 270 nM, RXRa partner concentration 90 nM)', 1.67),
  ('GCTGCTAGGTCAACTGATGGTCAGCAAAAGCTCG', 'RARg:RXRa (NR concentration 270 nM, RXRa partner concentration 90 nM)', 5.17),
  ('ATACCAAGGTGGTCGTGAGGTCGTTGATACTAAC', 'RARg:RXRa (NR concentration 270 nM, RXRa partner concentration 90 nM)', 1.25),
  ('TCGAGTAGGTTAGTCGTGGCATTCAGCCAACATA', 'RARg:RXRa (NR concentration 270 nM, RXRa partner concentration 90 nM)', -0.49),
  ('TAGCCTAGGTCATGGGCCAGTATCCCACGCGAAC', 'RARg:RXRa (NR concentration 270 nM, RXRa partner concentration 90 nM)', 4);
